System: Trypanosoma cruzi
METHOD: Antitrypanosomal activity against trypomastigote stage of Trypanosoma cruzi Dm28c at 10 umol/L after 24 hrs by MTT assay
Format: functional
The source made the active and inactive calls. The rule behind the calls is not given here.

COMPOUND	Activity
O=c1oc2ccc(Cl)cc2c(O)c1-c1cccc(O)c1	inactive
COc1ccc(-c2c(O)c3ccccc3oc2=O)cc1	1.6%
O=c1oc2ccccc2c(O)c1-c1ccc(Cl)cc1	30.7%
Cc1ccc(-c2c(O)c3ccccc3oc2=O)cc1	16.7%
CC1CS(=O)(=O)CCN1/N=C/c1ccc([N+](=O)[O-])o1 (stereo not drawn)	52.5%
O=c1cc(O)c2ccccc2o1	inactive
O=c1oc2ccccc2c(O)c1-c1ccccc1	21.1%
O=c1oc2ccccc2c(O)c1-c1cccc(O)c1	3.9%

Where these numbers come from: ChEMBL document CHEMBL2069191
